- PROTOCOL SUMMARY: Pharmacokinetic experiment in mouse
- MEASUREMENT SETUP: plasma, iv, 10 mg/kg
EXPERIMENTAL READOUT: Tmax
Kindly report the value followed by its unit.

Noted for N[C@H]1CC[C@](F)(CNC2CC2c2ccccc2)CC1 (stereo partly drawn) : its Tmax reads 4.98 min

Noted for O=C(OCc1ccccc1)N1CCC(F)(CNC2CC2c2ccccc2)CC1 (stereo not drawn) : its Tmax reads 4.98 min

Noted for FC1(CN[C@@H]2C[C@H]2c2ccccc2)CCNCC1 (relative stereo) : its Tmax reads 4.98 min

* * *

- PROTOCOL SUMMARY: in vivo
- MEASUREMENT SETUP: mouse, po
EXPERIMENTAL READOUT: Tmax (min)
Give a bare numeral; the unit min is implied.

Noted for O=C(O)c1ccc(CN2CCC(CN[C@@H]3C[C@H]3c3ccccc3)CC2)cc1 : its Tmax reads 10

* * *

- PROTOCOL SUMMARY: in vivo
- MEASUREMENT SETUP: mouse, po
EXPERIMENTAL READOUT: half-life (h)
Give a bare numeral; the unit h is implied.

Noted for O=C(O)c1ccc(CN2CCC(CN[C@@H]3C[C@H]3c3ccccc3)CC2)cc1 : its half-life reads 4.24

* * *

- PROTOCOL SUMMARY: in vivo
- MEASUREMENT SETUP: mouse, po
EXPERIMENTAL READOUT: Cmax (ng/mL)
Give a bare numeral; the unit ng/mL is implied.

Noted for O=C(O)c1ccc(CN2CCC(CN[C@@H]3C[C@H]3c3ccccc3)CC2)cc1 [GSK-2879552] : its Cmax reads 9180

* * *

- PROTOCOL SUMMARY: Pharmacokinetic experiment in mouse
- MEASUREMENT SETUP: plasma, po
EXPERIMENTAL READOUT: AUC(0-t) (ng·h/mL)
Give a bare numeral; the unit ng·h/mL is implied.

Noted for O=C(OCc1ccccc1)N1CCC(F)(CNC2CC2c2ccccc2)CC1 (stereo not drawn) : its AUC(0-t) reads 11400

Noted for FC1(CN[C@@H]2C[C@H]2c2ccccc2)CCNCC1 (relative stereo) : its AUC(0-t) reads 645

Noted for O=C(OCC1CCN(Cc2ccccc2)CC1)N1CCC(F)(CN[C@@H]2C[C@H]2c2ccccc2)CC1 (relative stereo) [Example A90] : its AUC(0-t) reads 5220

Noted for O=C(OCC1CCNCC1)N1CCC(F)(CN[C@@H]2C[C@H]2c2ccccc2)CC1 (relative stereo) [Example A43] : its AUC(0-t) reads 1230

Noted for O=C(OCC1CCNCC1)N1CCC(F)(CN[C@@H]2C[C@H]2c2ccccc2)CC1 [(1R,2S)-A43] : its AUC(0-t) reads 2500

Noted for N[C@H]1CC[C@](F)(CNC2CC2c2ccccc2)CC1 (stereo partly drawn) : its AUC(0-t) reads 1540
